System: OVCAR-4 ovarian
Test: NCI tumour cell line growth inhibition, 48 h
REPORTED METRIC: TGI (µM)
Write the value in µM as a bare number.

Task: TGI of Cc1cc(N(CCNc2ccnc3cc(Cl)ccc23)Cc2cccs2)nc(Cl)n1 on OVCAR-4 ovarian?
Output: 2.94

Task: What do we get for CN(C)CCCn1c2c(c3ccc(-c4ccn[nH]4)cc3c1=O)C(=O)c1ccccc1-2 ?
Output: 4.06

Task: Entry C=C1C(=O)O[C@H]2[C@H]1CC/C(COC(=O)CCSSCCC(=O)OC/C1=C/CC[C@@]3(C)O[C@H]3[C@H]3OC(=O)C(=C)[C@@H]3CC1)=C\CC[C@@]1(C)O[C@@H]21 please
Output: 3.12
